assay: chemical genetic growth profiling, strain panel (AID 1159580);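 further: tested at 20 µM; growth read once vehicle control cultures reached saturation at 30 °C; 1 = growth at the plate median or of vehicle wells; lower values mean less growth of the strain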; conditions: S. cerevisiae deletion strains, growth OD, locus YKR001C, strain vps1, hits give low values
The whole screen tested about 5,500 compounds, of which about 2,000 (36%) were called active. Not shown: some 18% with an inconclusive outcome. Some of the results follow.
Measured normalized growth accompanies every entry in the list below.

>>> obs_value("CC(C)CCCC(C)C1CCC2C3CC[C@H]4C[C@@H](O)CC[C@]4(C)C3CC[C@]12C (some centres undefined)")
"1.01 (inactive)"
>>> obs_value("CC(C)CCCC(C)C1CCC2C3CC(=O)[C@H]4C[C@@H](O)CC[C@]4(C)C3CC[C@]12C (some centres undefined)")
"1.02 (inactive)"
>>> obs_value("CC(C)CC1NC(=O)CNC1=O (centres undefined)")
"1.01 (inactive)"

IN: Fill in the blank: the reported normalized growth of CC(C)CCCC(C)[C@H]1CCC2C3CC[C@@H]4C[C@H](O)CC[C@]4(C)C3CC[C@@]21C (some centres undefined) is ____.
OUT: 0.998 (inactive)

IN: Fill in the blank: the reported normalized growth of CCC(C)C(=O)OC1[C@@H]2CC3=C4CC(=O)O[C@@H](c5ccoc5)[C@]4(C)CCC3[C@@](C)(C2=O)[C@@H](CC(=O)OC)C1(C)C (some centres undefined) is ____.
OUT: 1.01 (inactive)

IN: Fill in the blank: the reported normalized growth of CCCOc1ccc2nc(NC(=O)OC)[nH]c2c1 is ____.
OUT: 0.96 (inactive)

IN: Fill in the blank: the reported normalized growth of CC12CCC(=O)C=C1CCC1C2[C@@H](O)CC2(C)C1CC[C@]2(O)C(=O)COP(=O)(O)O (some centres undefined) is ____.
OUT: 0.997 (inactive)

IN: Fill in the blank: the reported normalized growth of CC(C)CCCC(C)[C@H]1CCC2C3CC=C4C[C@@H](O)CC[C@]4(C)C3CC[C@@]21C (some centres undefined) is ____.
OUT: 0.985 (inactive)

IN: Fill in the blank: the reported normalized growth of COc1ccc2cc(CCC(C)=O)ccc2c1 is ____.
OUT: 0.932 (inactive)
